This document collects IC50 values reported for Cholinesterase (Homo sapiens).
measured_attribute: IC50 (nM)

compound="CCCc1n[nH]c2c1C(c1ccc(Cl)cc1)c1c(nc3c(c1N)CSCC3)O2 (centres undefined)" measured_attribute=IC50 unit_name=nM censoring_sign== value_reported=15
compound="COc1cc(C2c3c(-c4ccccc4)n[nH]c3Oc3nc4c(c(N)c32)CCCC4)cc(OC)c1OC (centres undefined)" measured_attribute=IC50 unit_name=nM censoring_sign== value_reported=65
compound="CCCc1n[nH]c2c1C(c1ccc(C#N)cc1)c1c(nc3c(c1N)CCCC3)O2 (centres undefined)" measured_attribute=IC50 unit_name=nM censoring_sign== value_reported=37
compound="CCCc1n[nH]c2c1C(c1ccc(Cl)cc1)c1c(nc3c(c1N)CCCC3)O2 (centres undefined)" measured_attribute=IC50 unit_name=nM censoring_sign== value_reported=10
compound="CCCc1n[nH]c2c1C(c1ccc([N+](=O)[O-])cc1)c1c(nc3c(c1N)CCCC3)O2 (centres undefined)" measured_attribute=IC50 unit_name=nM censoring_sign== value_reported=29
compound="Nc1c2c(nc3c1C(c1ccccc1)c1c(-c4ccccc4)nn(-c4ccccc4)c1O3)CCCC2 (centres undefined)" measured_attribute=IC50 unit_name=nM censoring_sign=> value_reported=200000
compound="Nc1c2c(cc3c1C(c1ccccc1)c1c(-c4ccccc4)n[nH]c1O3)CCCC2 (centres undefined)" measured_attribute=IC50 unit_name=nM censoring_sign== value_reported=8
compound="CCCc1n[nH]c2c1C(c1cccc([N+](=O)[O-])c1)c1c(nc3c(c1N)CCCC3)O2 (centres undefined)" measured_attribute=IC50 unit_name=nM censoring_sign== value_reported=12
compound="COc1ccc(C2c3c(-c4ccccc4)n[nH]c3Oc3cc4c(c(N)c32)CCCC4)cc1 (centres undefined)" measured_attribute=IC50 unit_name=nM censoring_sign== value_reported=7
compound="CCCc1n[nH]c2c1C(c1ccc(N(C)C)cc1)c1c(nc3c(c1N)CCCC3)O2 (centres undefined)" measured_attribute=IC50 unit_name=nM censoring_sign== value_reported=24
compound="Cc1ccc(C2c3c(-c4ccccc4)n[nH]c3Oc3cc4c(c(N)c32)CCCC4)cc1 (centres undefined)" measured_attribute=IC50 unit_name=nM censoring_sign== value_reported=11
compound="CCCc1n[nH]c2c1C(c1cc(OC)c(OC)c(OC)c1)c1c(nc3c(c1N)CCCC3)O2 (centres undefined)" measured_attribute=IC50 unit_name=nM censoring_sign== value_reported=42
compound="Nc1c2c(nc3c1C(c1ccccc1)c1c(-c4ccccc4)n[nH]c1O3)CCCCC2 (centres undefined)" measured_attribute=IC50 unit_name=nM censoring_sign== value_reported=9
compound="Nc1c2c(nc3c1C(c1ccccc1)c1c(-c4ccco4)n[nH]c1O3)CCCC2 (centres undefined)" measured_attribute=IC50 unit_name=nM censoring_sign== value_reported=15
compound="CCCc1n[nH]c2c1C(c1ccccc1OC)c1c(nc3c(c1N)CCCC3)O2 (centres undefined)" measured_attribute=IC50 unit_name=nM censoring_sign== value_reported=18
compound="CCCc1n[nH]c2c1C(c1ccc(SC)cc1)c1c(nc3c(c1N)CCCC3)O2 (centres undefined)" measured_attribute=IC50 unit_name=nM censoring_sign== value_reported=8
compound="CCCc1n[nH]c2c1C(c1ccc(C)cc1)c1c(nc3c(c1N)CSCC3)O2 (centres undefined)" measured_attribute=IC50 unit_name=nM censoring_sign== value_reported=73
compound="Nc1c2c(nc3c1C(c1ccc(Cl)cc1)c1c(-c4ccccc4)n[nH]c1O3)CCCCC2 (centres undefined)" measured_attribute=IC50 unit_name=nM censoring_sign== value_reported=77
compound="Nc1c2c(nc3c1C(c1ccc(Cl)cc1)c1c(-c4ccccc4)n[nH]c1O3)CCSC2 (centres undefined)" measured_attribute=IC50 unit_name=nM censoring_sign== value_reported=30
compound="CCCc1n[nH]c2c1C(c1ccc(C)cc1)c1c(nc3c(c1N)CCCC3)O2 (centres undefined)" measured_attribute=IC50 unit_name=nM censoring_sign== value_reported=13
compound="CCCc1n[nH]c2c1C(c1ccccc1)c1c(nc3c(c1N)CCCCC3)O2 (centres undefined)" measured_attribute=IC50 unit_name=nM censoring_sign== value_reported=43
compound="Nc1c2c(nc3c1C(c1ccccc1)c1c(-c4ccco4)nn(-c4ccccc4)c1O3)CCCC2 (centres undefined)" measured_attribute=IC50 unit_name=nM censoring_sign== value_reported=5
compound="CCCc1n[nH]c2c1C(c1ccc(Cl)cc1)c1c(nc3c(c1N)CCCCC3)O2 (centres undefined)" measured_attribute=IC50 unit_name=nM censoring_sign== value_reported=75
compound="CCCc1n[nH]c2c1C(c1ccc(OC)c(OC)c1)c1c(nc3c(c1N)CCCC3)O2 (centres undefined)" measured_attribute=IC50 unit_name=nM censoring_sign== value_reported=365
compound="CCCc1n[nH]c2c1C(c1cccc(Br)c1)c1c(nc3c(c1N)CCCC3)O2 (centres undefined)" measured_attribute=IC50 unit_name=nM censoring_sign== value_reported=15
compound="Nc1c2c(cc3c1C(c1ccc(F)cc1)c1c(-c4ccccc4)n[nH]c1O3)CCCC2 (centres undefined)" measured_attribute=IC50 unit_name=nM censoring_sign== value_reported=7
compound="CC(C)C1c2c(-c3ccccc3)n[nH]c2Oc2nc3c(c(N)c21)CCCC3 (centres undefined)" measured_attribute=IC50 unit_name=nM censoring_sign== value_reported=570
compound="CCCc1n[nH]c2c1C(c1ccc(OC)cc1)c1c(nc3c(c1N)CCCC3)O2 (centres undefined)" measured_attribute=IC50 unit_name=nM censoring_sign== value_reported=6
compound="Nc1c2c(cc3c1C(c1ccc(Cl)cc1)c1c(-c4ccccc4)n[nH]c1O3)CCCC2 (centres undefined)" measured_attribute=IC50 unit_name=nM censoring_sign== value_reported=21
